Listed here are binders together with their documented Kd.
Molecular target: T1, recombinant human domain 1-3His6 of the cation-independent mannose-6-phosphate receptor (human, UniProt P11717 41-467)
T1 construct: Biotinylated (NHS-PEG4-biotin) for BLI; Glycosylated; also called hDom1-3His6; hCI-M6PRD1-D3
Assay: BLI at pH 7.4, 2nd of 2 repeats
Give the value in nM but do not write nM after it.

binder="anti-CI-M6PR VHH6 (VHH, His6-tagged; made in E. coli) VHH: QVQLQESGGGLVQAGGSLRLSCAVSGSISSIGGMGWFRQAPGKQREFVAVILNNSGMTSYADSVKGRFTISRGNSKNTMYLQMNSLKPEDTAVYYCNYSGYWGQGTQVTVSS" endpoint_result=4.74
binder="anti-CI-M6PR VHH10 (VHH, His6-tagged; made in Pichia pastoris) VHH: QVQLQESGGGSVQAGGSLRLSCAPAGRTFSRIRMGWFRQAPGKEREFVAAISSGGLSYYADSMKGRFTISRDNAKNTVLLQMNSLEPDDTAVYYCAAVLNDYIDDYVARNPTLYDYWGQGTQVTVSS" endpoint_result=46.5
binder="anti-CI-M6PR VHH11 (VHH, His6-tagged; made in Pichia pastoris) VHH: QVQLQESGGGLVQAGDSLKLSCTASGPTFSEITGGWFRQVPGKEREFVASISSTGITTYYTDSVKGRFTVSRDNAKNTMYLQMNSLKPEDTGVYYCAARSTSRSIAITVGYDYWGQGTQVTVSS" endpoint_result=51

We next turn to a different binder, shown below.
Q) Could you share which Kd value was measured for anti-CI-M6PR VHH9 (VHH, His6-tagged; made in Pichia pastoris) VHH: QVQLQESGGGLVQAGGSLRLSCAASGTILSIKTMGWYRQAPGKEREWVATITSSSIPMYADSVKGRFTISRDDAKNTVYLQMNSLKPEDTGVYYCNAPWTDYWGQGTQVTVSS ?
A) 0.282
